Source listed as paper PMC9482650.

A collection of binders and their measured pKd
Biological target: T1, APBA1_2, Q02410
T1 sequence (Q02410 742-832, limits assumed, looked up): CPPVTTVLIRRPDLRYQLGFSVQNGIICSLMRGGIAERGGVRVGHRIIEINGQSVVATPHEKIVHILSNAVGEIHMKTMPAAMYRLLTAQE
Experiment: holdup assay
Parameters: key: below the threshold = too weak to quantify, mostly under pKd 3.1 to 4
Details: plain residues with an end cap or a label only (N-terminal biotin on a linker: ado-ado)
measurement-label: pKd

PALKNGQYWV [CSPG4, Q6UVK1] : 4.67
EPAKETTTNV [SLC2A3, P11169] : 3.84
QLKSGRDSTV [TMEM178A, Q8NBL3] : 3.63
